recorded-metric: melting point (°C)

Worked cases, melting point given:
compound	melting point [°C]
COc1cc(Nc2cccc3c2nc(N2CCC(F)(F)CC2)n3C)ccc1-n1cnc(C)c1 [Compound 12]	81.2
COc1cc(-c2nc3c(Nc4ccc(-n5cnc(C)n5)c(OC)c4)nccc3n2C)ccc1Cl [Compound 114]	186.8

(A) COc1nc(Nc2cc(C(C)C)nc3c2nc(-c2ccc(F)cc2)n3C)ccc1-n1cnc(C)c1 [Compound 111]
(B) CC(=O)Nc1cccc(-c2nc3c(Nc4ccc(-n5cnc(C)c5)c(F)c4)nc(C)cc3n2C)c1 [Compound 141]
Q: Which of these two has the smaller recorded melting point: A or B ? // respond with label for picked entry
Result: A
(A: 172.3 °C, B: 257.2 °C)
